Reference for the values: patent US20220169740A1

Target: T1, canine FcRn with a poly-His tag / canine B2M heterodimer complex (canine, biotinylated where immobilised on the Biacore chip)
T1 construct: Made in HEK cells, Ni-NTA purified; also called canine FcRn/B2M complex; soluble canine FcRn/B2M complex
T1 chain: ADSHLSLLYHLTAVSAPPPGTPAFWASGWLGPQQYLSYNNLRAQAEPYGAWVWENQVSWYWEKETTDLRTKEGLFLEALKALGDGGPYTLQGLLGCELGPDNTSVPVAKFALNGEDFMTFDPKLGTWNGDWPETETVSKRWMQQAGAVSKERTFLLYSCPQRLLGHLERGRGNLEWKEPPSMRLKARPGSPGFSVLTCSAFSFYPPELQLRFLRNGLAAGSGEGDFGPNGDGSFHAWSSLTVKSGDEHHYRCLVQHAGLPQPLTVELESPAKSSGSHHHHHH
T1 b2m: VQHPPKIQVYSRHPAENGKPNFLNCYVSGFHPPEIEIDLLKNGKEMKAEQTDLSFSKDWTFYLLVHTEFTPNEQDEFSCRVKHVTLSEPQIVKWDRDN
Test: SPR (Biacore T200), steady state, 25 C, pH 6.0; SASA-tagged Fc polypeptide immobilised on CM5 chip, canine FcRn/B2M complex 12.5-200 nM as analyte
measurement name: pKd
Bear in mind: pKd is minus log10 of a mol/L concentration; give just that figure.

Past entries and their recorded results:
variant canine IgG-B Fc polypeptide YTE (other, not shown: small tags and cut ends, also called Leu23Tyr Ala25Thr Thr27Glu) PAPEMLGGPSVFIFPPKPKDTLYITREPEVTCVVVDLDPEDPEVQISWFVDGKQMQTAKTQPREEQFNGTYRVVSVLPIGHQDWLKGKQFTCKVNNKALPSPIERTISKARGQAHQPSVYVLPPSREELSKNTVSLTCLIKDFFPPDIDVEWQSNGQQEPESKYRTTPPQLDEDGSYFLYSKLSVDKSRWQRGDTFICAVMHEALHNHYTQESLSHSPGK :: 7.06
wild-type canine IgG-B Fc polypeptide (other, Expressed from plasmid pFASEBA in E. coli with an SASA tag; also called wildtype IgG-B Fc polypeptide; not shown: SASA tag) PAPEMLGGPSVFIFPPKPKDTLLIARTPEVTCVVVDLDPEDPEVQISWFVDGKQMQTAKTQPREEQFNGTYRVVSVLPIGHQDWLKGKQFTCKVNNKALPSPIERTISKARGQAHQPSVYVLPPSREELSKNTVSLTCLIKDFFPPDIDVEWQSNGQQEPESKYRTTPPQLDEDGSYFLYSKLSVDKSRWQRGDTFICAVMHEALHNHYTQESLSHSPGK :: 5.90

Bench note: what pKd did variant canine IgG-B Fc polypeptide L(23)Y (other, E. coli expressed, with SASA tag; also called Y00; not shown: SASA tag) PAPEMLGGPSVFIFPPKPKDTLYIARTPEVTCVVVDLDPEDPEVQISWFVDGKQMQTAKTQPREEQFNGTYRVVSVLPIGHQDWLKGKQFTCKVNNKALPSPIERTISKARGQAHQPSVYVLPPSREELSKNTVSLTCLIKDFFPPDIDVEWQSNGQQEPESKYRTTPPQLDEDGSYFLYSKLSVDKSRWQRGDTFICAVMHEALHNHYTQESLSHSPGK show?
6.95
